Target desc: Human D1 Receptor (Homo sapiens)
Construct: expressed in transfected cells; host or cells: LTK cell line over-expressing the D1 receptor
Sequence (P21728 whole entry): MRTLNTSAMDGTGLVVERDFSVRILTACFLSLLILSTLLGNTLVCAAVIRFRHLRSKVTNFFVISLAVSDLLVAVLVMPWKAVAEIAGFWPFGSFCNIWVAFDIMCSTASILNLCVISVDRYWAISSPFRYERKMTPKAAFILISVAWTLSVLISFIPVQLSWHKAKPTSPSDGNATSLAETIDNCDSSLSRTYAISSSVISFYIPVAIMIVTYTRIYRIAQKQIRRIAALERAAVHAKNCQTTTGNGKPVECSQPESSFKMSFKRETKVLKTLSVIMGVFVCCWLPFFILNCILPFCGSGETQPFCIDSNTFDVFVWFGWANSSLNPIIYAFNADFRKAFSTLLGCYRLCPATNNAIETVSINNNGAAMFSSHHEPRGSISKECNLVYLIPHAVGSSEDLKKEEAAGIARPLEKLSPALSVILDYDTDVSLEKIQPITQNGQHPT
Protocol notes: Human D1 Receptor Binding Assay ([3H]-SCH23390 competition binding)
Experimental context: over-expressing LTK human cell lines; 0.5 nM [3H]-SCH23390; 30 min at 37° C.; footnote a = geometric mean of ≧5 determinations, footnote b = single determination; read-out: Human D1 Receptor Binding, Ki (nM); Geometric mean of 2-4 determinations (unless otherwise indicated)
Measurement type: log10 of Ki (log10 of the value in nM)
Kindly note that the scale is log10 and the underlying Ki is in nM.

Solved entries (count: 4):
| Smi | log10 of Ki |
| --- | --- |
| Cc1ncnc(C)c1-c1ccc(Oc2nccc3ncsc23)cc1C#N | 2.26 |
| Cc1cc(Oc2ncnc3ccsc23)c(F)cc1-c1c(C)ncnc1C | 1.54 |
| Cc1cc(Oc2nccc3ncsc23)ccc1-c1c(C)ncnc1C | 1.88 |
| Cc1cc(Oc2nccc3cc[nH]c23)ccc1-c1nccnc1C | 3.28 |

Then this compound:
Per the reported Human D1 Receptor (Homo sapiens) data, Cc1cc(Oc2nccc3ccoc23)ccc1-c1c(C)ncnc1C has log10 of Ki of 1.76

----------
Target desc: Human D1 Receptor (Homo sapiens)
Construct: expressed in transfected cells; host or cells: LTK cell line over-expressing the D1 receptor
Protocol notes: Human D1 Receptor Binding Assay ([3H]-SCH23390 competition binding)
Experimental context: over-expressing LTK human cell lines; 0.5 nM [3H]-SCH23390; 30 min at 37° C.; footnote a = geometric mean of ≧5 determinations, footnote b = single determination; read-out: Human D1 Receptor Binding, Ki (nM); Geometric mean of 2-4 determinations (unless otherwise indicated)
Give measured Ki for each item. Keep answers brief.
Numbers only, in nM.

Sample records with Ki:
| Molecule | Units symbol | Ki |
| --- | --- | --- |
| Cc1n[nH]c(=O)c(C)c1-c1ccc(Oc2ncnc3ccsc23)cc1 | nM | 17.7 |
| Cc1ncnc(C)c1-c1ccc(Oc2ncnc3ccsc23)c(F)c1 | nM | 117 |
| Cc1cc(Oc2ncnc3ncsc23)ccc1-c1c(C)ncnc1C | nM | 2340 |
| Cc1cnnc(C)c1-c1ccc(Oc2nccc3ccsc23)cc1F | nM | 6.1 |
| COc1cc(Oc2ncnc3ccsc23)ccc1-c1c(C)ncnc1C | nM | 178 |
| Cc1ncnc(C#N)c1-c1ccc(Oc2nccc3ccsc23)cc1F | nM | 34.5 |

# return Ki for each item in the list
1. Cc1cc(Oc2nccc3ccsc23)ccc1-c1c(C)ncnc1C
2. Cc1cc(Oc2nccc3ncsc23)ccc1-c1c(C)cnnc1C (single isomer, unassigned) [Example 65]
3. COc1cc(Oc2nccc3ccsc23)ccc1-c1nccnc1C

### Response
5.8
223
44.9

----------
Target desc: Human D1 Receptor (Homo sapiens)
Construct: expressed in transfected cells; host or cells: LTK cell line over-expressing the D1 receptor
Protocol notes: Human D1 Receptor Binding Assay ([3H]-SCH23390 competition binding)
Experimental context: over-expressing LTK human cell lines; 0.5 nM [3H]-SCH23390; 30 min at 37° C.; footnote a = geometric mean of ≧5 determinations, footnote b = single determination; read-out: Human D1 Receptor Binding, Ki (nM); Geometric mean of 2-4 determinations (unless otherwise indicated)
Where a name gives a salt, the structure may show the parent alone.
For each record, write down the corresponding Ki.
Give bare numbers, in nM.

| Compound | Units symbol | Ki |
| --- | --- | --- |
| Cc1cc(Oc2nccc3ncsc23)ccc1-c1c(C)ncc(=O)n1C [Example 16] | nM | 82.8 |

For each entry beneath this line, provide reported Ki.
1. Cc1nc2cnccc2n1-c1ccc(Oc2nccc3ccsc23)cc1 [Example 51, trifluoroacetate salt]
2. Cc1ncnc(C)c1-c1ccc(Oc2ncnc3ccsc23)c(F)c1C

### Response
1: 89.5; 2: 121

For each listed entry, give its Ki.
1. Cc1cc(Oc2nccc3ncsc23)ccc1-c1c(C)n[nH]c(=O)c1C
2. Cc1c(-c2ccc(Oc3ncnc4ccsc34)cc2)n(C)c(=O)[nH]c1=O
3. Cc1cc(Oc2nccc3cc[nH]c23)ccc1-c1c(C)ncnc1C

### Response
1: 12.2; 2: 15.6; 3: 403

Parameters: items (list). Returns: Ki for each item.
1. Cc1cc(Oc2nccc3ncsc23)c(F)cc1-c1c(C)ncnc1C
2. Cc1ncnc(C)c1-c1ccc(Oc2nccc3ccsc23)cc1F
3. Cc1ncnc(C)c1-c1ccc(Oc2ncnc3ccsc23)cc1F [Example 24, trifluoroacetate salt]
4. Cc1ncnc(C)c1-c1ccc(Oc2nccc3ncsc23)c(F)c1C
5. Cc1cc(Oc2ncnc3ccsc23)ccc1-c1cn[nH]c(=O)c1C
6. Cc1ncnc(C)c1-c1ccc(Oc2nccc3ccsc23)cc1C#N
7. Cc1cc(Oc2nccc3ncsc23)ccc1-c1c(C)ncc2nccn12 (single isomer, unassigned; ent-1) [Example 61]

### Response
[151, 6.7, 531, 175, 68.4, 16.3, 151]

For every item in the list below, what is its measured Ki?
1. Cc1cc(Oc2nccc3cc[nH]c23)ccc1-c1c(C)n[nH]c(=O)c1C
2. Cc1cc(Oc2nccc3ncsc23)ccc1-c1c(C)ncc(=O)n1C (single isomer, unassigned) [Example 30]
3. Cc1ncnc(C)c1-c1ccc(Oc2ncnc3ccsc23)cc1
4. Cc1cc(Oc2ncnc3ccsc23)ccc1-c1c(C)c(=O)[nH]c(=O)n1C (single isomer, unassigned) [Example 2]
5. Cc1ncnc(C)c1-c1cc(F)c(Oc2nccc3ccsc23)cc1F

### Response
126
116
146
1.8
24.3
